Every entry's value here was drawn from PubChem BioAssay (NCATS).

Assay: qHTS Assay for Lipid Storage Modulators (AID 1519)
Conditions: Drosophila S3 cells, BODIPY lipid droplet/cell ratio, laser cytometry; measured here: lipid channel max response; cells loaded with oleic acid
Procedure: NIH Molecular Libraries Probe Production Centers Network [MLPCN] NIH Chemical Genomics Center [NCGC] Assay Submitter (PI): Beller, Mathias; Max-Planck-Institut fur Biophysikalische Chemie […] We dispensed 4 uL of cells at 1.25 x 10^6 cells/mL into LoBase Aurora COC 1,536-well plates (black walled, clear bottom) with a bottle-valve solenoid-based dispenser (Aurora) to obtain 5,000 cells/well. […] The ratio of the total intensity in PMT channel 1 over total intensity of channel 3 was also calculated. […]
Records with an inconclusive call do not appear.
max response: recorded values
EXPERIMENTAL READOUT: max response (%)

>>> df
                                   compound  experimental_readout  meas_value
0  NC(=O)c1ncn([C@H]2O[C@@H](CO)[C@@H](O)[C@@H]2O)n1          max response       -7.48
1  CCCCC[C@H](O)/C=C\[C@H]1[C@H](C/C=C\CCCC(=O)O)[C@@H](O)C[C@H]1O (tested in a mixture with another compound)          max response        13.4
2  CC1=CC(=O)C2=C(C)CC[C@@H]3[C@@H](OC(=O)[C@H]3C)[C@H]12          max response       -14.8
3    C=C(C)C1CC=C(CO)CC1 (stereo not given)          max response        1.38
4           CN1CCO[C@H](c2ccccc2)c2ccccc2C1          max response       -11.4
